Test system: Sporothrix schenckii
Assay: Antifungal activity against Sporothrix schenckii P1621 isolate from cutaneous-lymphatic sporotrichosis patient after 72 hrs by Sensititre YeastOne method
Format: functional
recorded.metric: MIC (µg/mL)
One number for each entry, in µg/mL.

Worked cases, MIC given:
C[C@@H](c1ncncc1F)[C@](O)(Cn1cncn1)c1ccc(F)cc1F [VORICONAZOLE]: 2
Nc1nc(=O)[nH]cc1F [FLUCYTOSINE]: 8
C[C@@H]1[C@H](O)[C@@H](C)/C=C/C=C/C=C/C=C/C=C/C=C/C=C/[C@H](O[C@@H]2O[C@H](C)[C@@H](O)[C@H](N)[C@@H]2O)C[C@@H]2O[C@](O)(C[C@@H](O)C[C@@H](O)[C@H](O)CC[C@@H](O)C[C@@H](O)CC(=O)O[C@H]1C)C[C@H](O)[C@H]2C(=O)O [AMPHOTERICIN B]: 0.5
CC(=O)N1CCN(c2ccc(OCC3COC(Cn4ccnc4)(c4ccc(Cl)cc4Cl)O3)cc2)CC1 (stereo unspecified) [KETOCONAZOLE]: 0.25

Switching to the query record.
For the compound shown here, CCC(C)n1ncn(-c2ccc(N3CCN(c4ccc(OCC5COC(Cn6cncn6)(c6ccc(Cl)cc6Cl)O5)cc4)CC3)cc2)c1=O (stereo unspecified) [ITRACONAZOLE] , give the reported MIC.
0.25

###

What MIC was measured for each of the following?
Test system: Sporothrix schenckii
Assay: Antifungal activity against Sporothrix schenckii P30915 isolate from cutaneous-lymphatic sporotrichosis patient after 72 hrs by ATB Fungus 2 method
Assay type: functional

Worked cases, MIC given:
Nc1nc(=O)[nH]cc1F: > 64 µg/mL
C[C@@H]1[C@H](O)[C@@H](C)/C=C/C=C/C=C/C=C/C=C/C=C/C=C/[C@H](O[C@@H]2O[C@H](C)[C@@H](O)[C@H](N)[C@@H]2O)C[C@@H]2O[C@](O)(C[C@@H](O)C[C@@H](O)[C@H](O)CC[C@@H](O)C[C@@H](O)CC(=O)O[C@H]1C)C[C@H](O)[C@H]2C(=O)O: ≤ 0.5 µg/mL
OC(Cn1cncn1)(Cn1cncn1)c1ccc(F)cc1F: > 128 µg/mL

Hello, I am looking for reported MIC with Sporothrix schenckii for CCC(C)n1ncn(-c2ccc(N3CCN(c4ccc(OCC5COC(Cn6cncn6)(c6ccc(Cl)cc6Cl)O5)cc4)CC3)cc2)c1=O (centres undefined) . Could you help?
2 µg/mL

###

What MIC was measured for each of the following?
Tested on: Sporothrix schenckii
Assay: Antifungal activity against Sporothrix schenckii PGAC0016 isolate from cutaneous-lymphatic sporotrichosis patient after 72 hrs by Sensititre YeastOne method
Format: functional
Give bare numbers, in µg/mL.

CCC(C)n1ncn(-c2ccc(N3CCN(c4ccc(OCC5COC(Cn6cncn6)(c6ccc(Cl)cc6Cl)O5)cc4)CC3)cc2)c1=O (stereo unspecified): 0.13
C[C@@H]1[C@H](O)[C@@H](C)/C=C/C=C/C=C/C=C/C=C/C=C/C=C/[C@H](O[C@@H]2O[C@H](C)[C@@H](O)[C@H](N)[C@@H]2O)C[C@@H]2O[C@](O)(C[C@@H](O)C[C@@H](O)[C@H](O)CC[C@@H](O)C[C@@H](O)CC(=O)O[C@H]1C)C[C@H](O)[C@H]2C(=O)O: 0.125
Nc1nc(=O)[nH]cc1F: 16
C[C@@H](c1ncncc1F)[C@](O)(Cn1cncn1)c1ccc(F)cc1F: 4

Switching to the query record.
For the compound shown here, CC(=O)N1CCN(c2ccc(OCC3COC(Cn4ccnc4)(c4ccc(Cl)cc4Cl)O3)cc2)CC1 (stereo unspecified) , give the reported MIC.
0.125

Cited source: ChEMBL document CHEMBL1150788
